Provenance of the data: PubChem BioAssay AID1996

Measured solubility kinetic by item
# EXPERIMENTAL SETUP: buffer; pH 7.4; 200.0 µM
READOUT TYPE: solubility kinetic

COMPOUND: Cl.c1cnc(N2CCNCC2)nc1
ENDPOINT VALUE: > 35.6 µg/mL
--
COMPOUND: Nc1ccc(C(=O)OCC(=O)NC2CC2)cc1[N+](=O)[O-]
ENDPOINT VALUE: > 41.9 µg/mL
--
COMPOUND: CCCCc1nc2sc3c(=O)[nH]cnc3c2c2c1CCCC2
ENDPOINT VALUE: < 0.2 µg/mL
--
COMPOUND: Cc1noc(C)c1S(=O)(=O)N1CCCC1C(=O)O (centres undefined)
ENDPOINT VALUE: > 41.1 µg/mL
--
COMPOUND: O=C(COC(=O)c1cnccn1)c1ccc(Cl)c([N+](=O)[O-])c1
ENDPOINT VALUE: > 48.3 µg/mL
--
COMPOUND: OCC[N+]12CCC(CC1)C(C(O)(c1ccccc1)c1ccccc1)C2 (centres undefined)
ENDPOINT VALUE: > 50.8 µg/mL
--
COMPOUND: COc1ccc(CCN2C(=O)C(C)=C(C)C2=O)cc1OC
ENDPOINT VALUE: > 43.4 µg/mL
--
COMPOUND: O=C(N/N=C\c1ccc(O)c([N+](=O)[O-])c1)C1COc2ccccc2O1 (centres undefined)
ENDPOINT VALUE: > 51.5 µg/mL
--
COMPOUND: O=C(O)C(Cc1ccccc1)N1C(=O)CCC1=O (centres undefined)
ENDPOINT VALUE: > 37.1 µg/mL
--
COMPOUND: Nc1cccc(CN2CCCC2)c1
ENDPOINT VALUE: > 26.4 µg/mL
--
COMPOUND: CCCCNC(=S)Nc1ccc(SC(F)F)cc1
ENDPOINT VALUE: > 43.6 µg/mL
--
COMPOUND: CCCCCn1c(=O)c(C(=O)Nc2ccccc2N)c(O)c2ccccc21
ENDPOINT VALUE: < 0.3 µg/mL
--
COMPOUND: Cc1cc(C(=O)NCc2ccc3c(c2)OCO3)c(C)o1
ENDPOINT VALUE: > 41 µg/mL
--
COMPOUND: O=C(COC(=O)/C=C/c1cccs1)NC1CC1
ENDPOINT VALUE: > 37.7 µg/mL
--
COMPOUND: Cc1cccc(CC(=O)Nc2ccon2)c1
ENDPOINT VALUE: > 32.4 µg/mL
--
COMPOUND: CC1CN(C(=O)c2ccc(COc3ccccc3Cl)o2)CC(C)O1 (centres undefined)
ENDPOINT VALUE: > 52.5 µg/mL
--
COMPOUND: COc1cc(N)c(Cl)cc1C(=O)OCC(=O)NCC1CCCO1 (centres undefined)
ENDPOINT VALUE: > 51.4 µg/mL
--
COMPOUND: CCOc1ccc(CCNC(=O)c2cnc(C)cn2)cc1OCC
ENDPOINT VALUE: > 49.4 µg/mL
--
COMPOUND: CCCn1c(SCCC(=O)O)nc2ccccc21
ENDPOINT VALUE: > 39.7 µg/mL

---

# EXPERIMENTAL SETUP: buffer; pH 7.4; 200.0 µM
List of solubility kinetic values.

MOLECULE: O=c1c(C/C=C/c2ccccc2)c(O)ccn1Cc1cccc(Cl)c1
solubility kinetic: < 0.8 µg/mL
--
MOLECULE: COc1ccc(OC)c(CNC(=O)C2CCC(=O)N2C(C)C)c1 (stereo not drawn)
solubility kinetic: > 48.1 µg/mL
--
MOLECULE: Cc1ccccc1-n1cc[nH]c1=S
solubility kinetic: > 28.5 µg/mL
